- STUDY_SYSTEM: human TLR7 (Homo sapiens, UniProt Q9NYK1)
- Construct: expressed in transfected cells; host or cells: HEK293
- Sequence (Q9NYK1 27-1049): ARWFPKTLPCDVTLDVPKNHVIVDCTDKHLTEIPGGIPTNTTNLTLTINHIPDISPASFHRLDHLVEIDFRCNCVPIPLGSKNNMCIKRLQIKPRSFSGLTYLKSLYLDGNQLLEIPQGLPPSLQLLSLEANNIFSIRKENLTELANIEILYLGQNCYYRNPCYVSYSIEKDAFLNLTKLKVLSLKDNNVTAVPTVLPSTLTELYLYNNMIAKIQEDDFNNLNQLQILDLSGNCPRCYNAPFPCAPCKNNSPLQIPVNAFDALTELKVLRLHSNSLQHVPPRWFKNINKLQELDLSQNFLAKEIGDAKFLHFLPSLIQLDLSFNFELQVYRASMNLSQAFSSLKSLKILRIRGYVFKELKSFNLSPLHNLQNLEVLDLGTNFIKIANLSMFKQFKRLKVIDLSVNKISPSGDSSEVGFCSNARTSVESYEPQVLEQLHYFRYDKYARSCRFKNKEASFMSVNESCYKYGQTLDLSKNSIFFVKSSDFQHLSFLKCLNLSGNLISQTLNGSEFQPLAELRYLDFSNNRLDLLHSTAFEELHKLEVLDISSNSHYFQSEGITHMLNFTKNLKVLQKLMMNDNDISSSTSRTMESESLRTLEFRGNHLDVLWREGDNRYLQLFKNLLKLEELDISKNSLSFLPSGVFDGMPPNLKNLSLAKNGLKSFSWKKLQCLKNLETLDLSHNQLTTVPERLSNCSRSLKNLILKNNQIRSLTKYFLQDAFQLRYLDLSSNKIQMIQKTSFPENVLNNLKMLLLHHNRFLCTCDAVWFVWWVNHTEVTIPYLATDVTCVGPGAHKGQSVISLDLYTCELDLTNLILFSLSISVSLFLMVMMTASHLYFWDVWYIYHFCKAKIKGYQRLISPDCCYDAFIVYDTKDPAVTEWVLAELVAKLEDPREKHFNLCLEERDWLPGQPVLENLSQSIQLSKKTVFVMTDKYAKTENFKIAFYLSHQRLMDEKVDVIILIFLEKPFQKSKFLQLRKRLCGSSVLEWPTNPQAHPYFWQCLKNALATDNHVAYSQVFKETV
- MEASUREMENT_NOTES: TLR7 cellular reporter assay (HEK293 TLR7-NFκB-luc)
- Assay type: cell-based
- PROTOCOL_CONDITIONS: lowest effective concentration; HEK293 transiently transfected with TLR7 and NFκB-luc; 6 hours incubation
- Procedure: The ability of compounds to activate human TLR7 and TLR8 was assessed in a cellular reporter assay using HEK293 cells transiently transfected with a TLR7 or TLR8 expression vector and NFκB-luc reporter construct. […] Following 6 hours incubation at 37° C., 5% CO2, the luciferase activity was determined by adding 15 μl of Steady Lite Plus substrate (Perkin Elmer) to each well and readout performed on a ViewLux ultraHTS microplate imager (Perkin Elmer). […]
RESULT_TYPE: HEK293 TLR7-NFκB-luc (LEC; μM) (µM)

The cases that follow already have their HEK293 TLR7-NFκB-luc (LEC; μM) on record.
*Q* // returns reported HEK293 TLR7-NFκB-luc (LEC; μM) for input Nc1nc2nc3c1nc(O)n3Cc1cccc(c1)C/C=C/CCCO2 [Compound 16]
*A* 0.375

*Q* Okay, and COc1c2cccc1OC/C=C\COc1nc(N)c3nc(O)n(c3n1)C2 [Compound 62] ?
*A* 7.26

[1] Nc1nc2nc3c1nc(O)n3Cc1cccc(c1)CCCCCC(CO)N2 (centres unmarked) [Compound 10]
[2] COc1cc2cc(c1)OC/C=C\COc1nc(N)c3nc(O)n(c3n1)C2 [Compound 65]
[3] Nc1nc2nc3c1nc(O)n3Cc1cccc(c1)OCCOCCO2 [Compound 12]
*Q* Write the entries in order, lowest recorded HEK293 TLR7-NFκB-luc (LEC; μM) first. Form entry: labels listed in requested order.
*A* 2, 3, 1
(2: 0.038 µM, 3: 0.39 µM, 1: 5.26 µM)
